target: full-length beta-Catenin (Uniprot ID P35222) (Homo sapiens (Human)) (UniProt P35222); test: fluorescence polarization competition; full-length beta-catenin, competitor probe 5FAM-TCF4(10-53)
Starred links: 1 amine or outer side, 2 acyl side, 3 side chain; linkers in the order of their positions; H or OH if unused. Positions of bridges follow the written chain, without caps; N, C: chain ends. Non-standard residues stand in square brackets, D forms with d. Primed or numbered codes have the meaning given here. PyrS2″ = (S)-3-amino-1-((pent-4-en-1-yloxy)carbonyl)pyrrolidine-3-carboxylic acid (stapling residue), C=CCCCOC(=O)N1CC[C@@](N[*:1])(C(=O)[*:2])C1; B5(32) = 2-amino-2-(pent-4-en-1-yl)hept-6-enoic acid (bis-4-pentenylglycine, two alkene side chains), C=CCCCC(CCCC=C)(N[*:1])C(=O)[*:2]; B5(4) = 2,2-bis(4-pentenyl)glycine = 2-amino-2-(pent-4-en-1-yl)hept-6-enoic acid (stitching residue), C=CCCCC(CCCC=C)(N[*:1])C(=O)[*:2]; TfeGA = (S)-2-amino-3-((carboxymethyl)(2,2,2-trifluoroethyl)amino)propanoic acid, O=C([C@H](CN(CC(=O)[*:3])CC(F)(F)F)N[*:1])[*:2]; PyrS2 = (S)-3-amino-1-((pent-4-en-1-yloxy)carbonyl)pyrrolidine-3-carboxylic acid, C=CCCCOC(=O)N1CC[C@@](N[*:1])(C(=O)[*:2])C1; 3Br4FF = (S)-2-amino-3-(3-bromo-4-fluorophenyl)propanoic acid, O=C([C@H](Cc1ccc(F)c(Br)c1)N[*:1])[*:2]; B5(3) = 2,2-bis(4-pentenyl)glycine (stitching residue), C=CCCCC(CCCC=C)(N[*:1])C(=O)[*:2]; Phe(3-COOH) = N[C@@H](Cc1cccc(C(=O)O)c1)C(=O)O; Phe(2-CF3) = N[C@@H](Cc1ccccc1C(F)(F)F)C(=O)O; Phe(2-Cl) = N[C@@H](Cc1ccccc1Cl)C(=O)O; Bta = N[C@@H](Cc1csc2ccccc12)C(=O)O; αAllylPro = C=CC[C@@]1(C(=O)O)CCCN1; tBuAla = CC(C)(C)C[C@H](N)C(=O)O; 3Thi = N[C@@H](Cc1ccsc1)C(=O)O; Aib = CC(C)(N)C(=O)O
result type: IC50 (nM)

I = Ac-[αAllylPro]D[tBuAla][B5(3)]D[TfeGA]AAFF[PyrS2″]F[Bta]Q-NH2 (staple 1-4, 4-11) [I-988]
II = Ac-[αAllylPro]D[tBuAla][B5(32)]D[Phe(3-COOH)]AAFL[PyrS2][3Thi][Bta]NLLL-NH2 (staple 1-4, 4-11; also: later eluting staple isomer (HPLC peak)) [I-2276]
Exercise: Identify the item whose IC50 is the smaller number: I or II Please reply using the label of the selected record.
Key: I
(I: 5 nM, II: 158 nM)

a = Ac-[αAllylPro]D[tBuAla][B5(4)]D[Phe(3-COOH)]AAFL[PyrS2][Phe(2-CF3)][3Br4FF]S-NH2 (staple 1-4, 4-11) [I-2289]
b = Ac-[αAllylPro]D[tBuAla][B5(3)]D[Phe(3-COOH)]AAFL[PyrS2″][3Thi][Bta]NA[Aib]A[Aib]A-NH2 (staple 1-4, 4-11) [I-2272]
c = Ac-[αAllylPro]D[tBuAla][B5(4)]D[Phe(3-COOH)]AAFL[PyrS2][3Thi][Bta]NALALALA-NH2 (staple 1-4, 4-11; also: earlier eluting staple isomer) [I-2283]
Exercise: Put the binders in ascending order of IC50. Hello, could you send the labels back in the order asked? Thank you.
Key: a, b, c
(a: 8 nM, b: 43 nM, c: 2860 nM)

a = Ac-[αAllylPro]D[tBuAla][B5(3)]D[TfeGA]AAFF[PyrS2″][Phe(2-Cl)][Bta]T-NH2 (staple 1-4, 4-11) [I-991]
b = Ac-[αAllylPro]D[tBuAla][B5(4)]D[Phe(3-COOH)]AAFL[PyrS2][3Thi][Bta]NALALALA-NH2 (staple 1-4, 4-11; also: later eluting staple isomer) [I-2284]
Exercise: // task: argmin of IC50 over [ a , b ] API: response body contains the label of the selected item.
Key: a
